// data source = ChEMBL document CHEMBL5214999

# Assay Target: Transcription intermediary factor 1-alpha (Homo sapiens)
# Sequence (O15164 whole entry): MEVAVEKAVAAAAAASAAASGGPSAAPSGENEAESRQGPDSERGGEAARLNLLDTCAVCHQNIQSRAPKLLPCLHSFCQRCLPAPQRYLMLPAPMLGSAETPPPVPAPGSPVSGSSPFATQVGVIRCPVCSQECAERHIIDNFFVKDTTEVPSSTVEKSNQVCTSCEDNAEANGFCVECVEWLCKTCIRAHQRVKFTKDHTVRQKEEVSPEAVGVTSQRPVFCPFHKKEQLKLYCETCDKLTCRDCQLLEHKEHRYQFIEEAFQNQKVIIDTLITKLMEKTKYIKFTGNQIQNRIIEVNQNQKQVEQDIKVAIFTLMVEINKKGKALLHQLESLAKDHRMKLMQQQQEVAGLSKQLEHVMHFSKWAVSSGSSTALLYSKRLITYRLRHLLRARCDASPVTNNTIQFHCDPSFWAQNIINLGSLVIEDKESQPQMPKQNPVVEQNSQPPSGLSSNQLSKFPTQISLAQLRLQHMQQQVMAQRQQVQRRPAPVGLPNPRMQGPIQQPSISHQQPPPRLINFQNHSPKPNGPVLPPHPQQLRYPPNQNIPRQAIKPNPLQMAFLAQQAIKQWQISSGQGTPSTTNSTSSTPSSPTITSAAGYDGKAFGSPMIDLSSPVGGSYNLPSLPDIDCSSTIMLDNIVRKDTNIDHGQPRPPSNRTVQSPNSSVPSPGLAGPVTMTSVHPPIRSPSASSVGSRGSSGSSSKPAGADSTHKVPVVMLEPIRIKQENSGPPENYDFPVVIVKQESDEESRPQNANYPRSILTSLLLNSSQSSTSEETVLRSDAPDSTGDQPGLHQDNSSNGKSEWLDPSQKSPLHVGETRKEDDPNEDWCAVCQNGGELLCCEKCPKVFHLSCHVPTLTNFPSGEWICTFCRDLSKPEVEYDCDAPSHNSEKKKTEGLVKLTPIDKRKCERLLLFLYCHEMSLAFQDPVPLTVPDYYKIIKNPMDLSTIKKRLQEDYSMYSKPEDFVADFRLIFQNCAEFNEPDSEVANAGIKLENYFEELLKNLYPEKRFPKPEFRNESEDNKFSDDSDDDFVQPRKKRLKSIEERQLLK
# Method Description: Binding affinity to human TRIM24 bromodomain by BROMOscan method
Observation Type: Kd (µM)

{"Chemical String": "C[C@H]1C(=O)N(C)C=C(c2cnn(C)c2)c2cc([C@@H](O)CO)ccc21", "Measurement Units": "µM", "Observed Value": 1.26}

* * *

# Method Description: Artificial membrane permeability of the compound
# Format: ADME
# Conditions Used: PAMPA; read-out: permeability
Label Y when Papp >= 70 ×10⁻⁶ cm/s; otherwise N.

{"Compound": "C[C@H]1C(=O)N(C)C=C(c2cn[nH]c2)c2cc([C@@H](O)CO)ccc21", "Discrete Label": "N"}
{"Compound": "COc1cc2c(cc1OC)[C@@H](C)C(=O)N(C)C=C2", "Discrete Label": "Y"}
{"Compound": "C[C@H]1C(=O)N(C)C=Cc2cc(C(CO)CO)ccc21", "Discrete Label": "N"}
{"Compound": "Cc1nc(C2=CN(C)C(=O)[C@H](C)c3ccc(OCCO)cc32)c[nH]1", "Discrete Label": "N"}
{"Compound": "COc1ccc2c(c1)C=CN(C)C(=O)[C@@H]2C", "Discrete Label": "Y"}
{"Compound": "CC1C(=O)N(C)C=Cc2cc(OCC(C)(C)O)ccc21 (racemic)", "Discrete Label": "Y"}
{"Compound": "CCOc1ccc2c(c1)C(c1cc[nH]n1)=CN(C)C(=O)C2C (racemic)", "Discrete Label": "N"}
{"Compound": "C[C@H]1C(=O)N(C)C=C(c2cnn(C)c2)c2cc([C@H](O)CO)ccc21", "Discrete Label": "N"}
{"Compound": "C[C@H]1C(=O)N(C)C=Cc2cc(CN3CCOCC3)ccc21", "Discrete Label": "Y"}
{"Compound": "CCS(=O)(=O)c1ccc2c(c1)C(c1cnn(C)c1)=CN(C)C(=O)[C@@H]2C", "Discrete Label": "N"}
{"Compound": "CCOc1ccc2c(c1)C(c1c[nH]c(C)n1)=CN(C)C(=O)[C@@H]2C", "Discrete Label": "N"}
{"Compound": "CCS(=O)(=O)c1ccc2c(c1)C=CN(C)C(=O)[C@@H]2C (racemic)", "Discrete Label": "N"}
{"Compound": "CCOc1ccc2c(c1)C(c1cn[nH]c1)=CN(C)C(=O)[C@@H]2C", "Discrete Label": "N"}
{"Compound": "COCCOc1ccc2c(c1)C=CN(C)C(=O)[C@@H]2C", "Discrete Label": "Y"}

* * *

# Method Description: Lipophilicity, logD of compound at pH 7.4 by Chromatography
# Assay type: physicochemical
# Conditions Used: buffer
Observation Type: chromatographic logD

{"Molecule": "CC1C(=O)N(C)C=Cc2cc(OCC(C)(C)O)ccc21 (racemic)", "Observed Value": 3.6}
{"Molecule": "C[C@H]1C(=O)N(C)C=C(c2cnn(C)c2)c2cc([C@H](O)CO)ccc21", "Observed Value": 1.3}
{"Molecule": "C[C@H]1C(=O)N(C)C=Cc2cc(C(O)CO)ccc21 (some centres undefined)", "Observed Value": 1.1}
{"Molecule": "C[C@H]1C(=O)N(C)C=C(c2cnn(C)c2)c2cc(C(CO)CO)ccc21", "Observed Value": 1.4}

* * *

// solubility kinetic lookup, one value per entry
# Method Description: Solubility of the compound in saline by CLND method
# Type: physicochemical

{"Compound": "CC1C(=O)N(C)C=Cc2cc(OCC(C)(C)O)ccc21 (racemic)", "solubility kinetic": "≥ 131 µg/mL"}
{"Compound": "C[C@H]1C(=O)N(C)C=Cc2ccccc21 (racemic)", "solubility kinetic": "≥ 86 µg/mL"}
{"Compound": "CCOc1ccc2c(c1)C(c1cn[nH]c1)=CN(C)C(=O)[C@@H]2C", "solubility kinetic": "≥ 115 µg/mL"}
{"Compound": "CCS(=O)(=O)c1ccc2c(c1)C(c1cnn(C)c1)=CN(C)C(=O)[C@@H]2C", "solubility kinetic": "≥ 222 µg/mL"}

* * *

# Assay Target: C-C motif chemokine 2 (Homo sapiens)
# Sequence (P13500 whole entry): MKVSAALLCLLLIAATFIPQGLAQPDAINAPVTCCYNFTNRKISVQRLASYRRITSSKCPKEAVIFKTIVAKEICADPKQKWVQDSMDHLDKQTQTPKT
# Method Description: Inhibition of MCP-1 in LPS-stimulated human whole blood incubate for 24 hrs by immuno assay
Observation Type: log10 of IC50 (log10 of the value in nM)

{"Molecule": "C[C@H]1C(=O)N(C)C=Cc2cc(C(CO)CO)ccc21", "log10 of IC50": 2.80}
{"Molecule": "C[C@H]1C(=O)N(C)C=C(c2cnn(C)c2)c2cc([C@H](O)CO)ccc21", "log10 of IC50": 1.60}
{"Molecule": "CCOc1ccc2c(c1)C(c1cnn(C)c1)=CN(C)C(=O)[C@@H]2C", "log10 of IC50": 1.30}
{"Molecule": "C[C@H]1C(=O)N(C)C=Cc2cc(CC3CCOCC3)ccc21", "log10 of IC50": 2.80}
{"Molecule": "CCOc1ccc2c(c1)C(c1c[nH]cn1)=CN(C)C(=O)[C@@H]2C", "log10 of IC50": 1.70}
{"Molecule": "CCOc1ccc2c(c1)C=CN(C)C(=O)C2C (racemic)", "log10 of IC50": 3.50}

* * *

# Method Description: Lipophilicity, logD of compound at pH 7.4 by Chromatography
# Type: physicochemical
# Conditions Used: buffer
// chromatographic logD lookup, one value per entry
Observation Type: chromatographic logD

{"Compound": "C[C@H]1C(=O)N(C)C=Cc2cc(CCO)ccc21", "Observed Value": 2.6}
{"Compound": "CCc1ccc2c(c1)C=CN(C)C(=O)[C@@H]2C", "Observed Value": 5.9}
{"Compound": "COc1cc2c(cc1OC)[C@H](C)C(=O)N(C)C=C2", "Observed Value": 3.4}
{"Compound": "COc1cc2c(cc1OC)[C@@H](C)C(=O)N(C)C=C2", "Observed Value": 3.4}
{"Compound": "C[C@H]1C(=O)N(C)C=C(c2cn[nH]c2)c2cc([C@@H](O)CO)ccc21", "Observed Value": 0.9}
{"Compound": "CCOc1ccc2c(c1)C(n1ccnc1)=CN(C)C(=O)C2C (racemic)", "Observed Value": 4.3}
{"Compound": "C[C@H]1C(=O)N(C)C=Cc2ccccc21 (racemic)", "Observed Value": 4.3}

* * *

// Papp lookup, one value per entry
# Method Description: Artificial membrane permeability of the compound
# Format: ADME
# Conditions Used: PAMPA; read-out: permeability

{"Molecule": "CCOc1ccc2c(c1)C=CN(C)C(=O)C2C (racemic)", "Measurement Units": "×10⁻⁶ cm/s", "Papp": 70}
{"Molecule": "CCOc1ccc2c(c1)C(c1cn(C)cn1)=CN(C)C(=O)[C@@H]2C", "Measurement Units": "×10⁻⁶ cm/s", "Papp": 69}
{"Molecule": "C[C@H]1C(=O)N(C)C=Cc2cc(CC3CCOCC3)ccc21", "Measurement Units": "×10⁻⁶ cm/s", "Papp": 71}
